protocol_notes: Study BHV3500-103 Treatment B: PK after 50 mg x 1 SoftGel orally
Type: in vivo, humans
settings: human, in vivo, po, 50 mg, Study 103; 50 mg SoftGel x 1 oral; read-out: AUCINF_obs, Geometric Mean
readout_type: AUC(0-inf) (ng·h/mL)
Numbers only, in ng·h/mL.

Measured AUC(0-inf) of Cc1cc(C[C@@H](NC(=O)N2CCC(c3cc4ccccc4[nH]c3=O)CC2)C(=O)N2CCN(C3CCN(C)CC3)CC2)cc2cn[nH]c12 : 21.5

---

protocol_notes: Study BHV3500-103 Treatment B: PK after 50 mg x 1 SoftGel orally
Assay type: in vivo, humans
settings: human, in vivo, po, 50 mg, Study 103; 50 mg SoftGel x 1 oral; read-out: AUC0-24, Mean
Description: Single-dose: Study BHV3500-103, PK data after 50 mg×1 (2×25 mg) SoftGel administered orally (Treatment B)
readout_type: AUC(0-t) (µg·h/mL)
Numbers only, in µg·h/mL.

Measured AUC(0-t) of Cc1cc(C[C@@H](NC(=O)N2CCC(c3cc4ccccc4[nH]c3=O)CC2)C(=O)N2CCN(C3CCN(C)CC3)CC2)cc2cn[nH]c12 : 0.0253
